pIC50 listing for selected compounds.
# target of assay: Neuronal acetylcholine receptor subunit alpha-7 (Homo sapiens, UniProt P36544)
# Sequence (P36544 whole entry): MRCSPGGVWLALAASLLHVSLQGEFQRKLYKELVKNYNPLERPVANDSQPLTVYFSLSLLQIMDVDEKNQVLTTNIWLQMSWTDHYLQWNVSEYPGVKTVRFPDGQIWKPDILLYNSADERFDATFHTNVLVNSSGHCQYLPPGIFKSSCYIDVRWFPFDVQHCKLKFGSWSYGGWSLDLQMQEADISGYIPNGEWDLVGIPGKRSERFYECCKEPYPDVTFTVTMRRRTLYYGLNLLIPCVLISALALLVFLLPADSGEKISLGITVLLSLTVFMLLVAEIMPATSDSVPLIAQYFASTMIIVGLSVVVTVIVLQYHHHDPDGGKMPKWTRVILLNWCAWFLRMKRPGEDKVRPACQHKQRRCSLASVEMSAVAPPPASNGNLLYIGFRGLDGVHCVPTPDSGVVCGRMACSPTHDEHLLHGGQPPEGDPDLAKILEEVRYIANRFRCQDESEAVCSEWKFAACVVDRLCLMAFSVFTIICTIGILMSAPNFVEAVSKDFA
# test protocol: Antagonist activity at human alpha7 nACHR expressed in xenopous laevis oocyte assessed as inhibition of ACh-induced channel current after 5 mins at -70 mV holding potential by two electrode voltage clamp method
pIC50: −log10 of the molar value.
test readout: pIC50

[[record]]
mol = "CC[N+](CC)(CC)CCCCCCCCOc1ccc(/C=C/c2ccccc2)cc1.[I-]"
cmp = "="
value = 7.04

[[record]]
mol = "COc1cc(/C=C/c2ccc(OCCCC[P+](c3ccccc3)(c3ccccc3)c3ccccc3)cc2)cc(OC)c1.[I-]"
cmp = "<"
value = 5.00

[[record]]
mol = "CC[N+](CC)(CC)CCCCOc1ccc(/C=C/c2cc(OC)cc(OC)c2)cc1"
cmp = "="
value = 7.61

[[record]]
mol = "CC[N+](CC)(CC)CCCCCCOc1ccc(/C=C/c2ccccc2)cc1"
cmp = "="
value = 7.91

[[record]]
mol = "CC[N+](CC)(CC)CCCCOc1ccc(/C=C/c2ccccc2)cc1.[I-]"
cmp = "="
value = 8.19


----------
Collected pIC50 values appear next to each entry.
# target of assay: Neuronal acetylcholine receptor; alpha9/alpha10 (Homo sapiens, UniProt Q9GZZ6+Q9UGM1)
# Sequence (Q9UGM1 whole entry): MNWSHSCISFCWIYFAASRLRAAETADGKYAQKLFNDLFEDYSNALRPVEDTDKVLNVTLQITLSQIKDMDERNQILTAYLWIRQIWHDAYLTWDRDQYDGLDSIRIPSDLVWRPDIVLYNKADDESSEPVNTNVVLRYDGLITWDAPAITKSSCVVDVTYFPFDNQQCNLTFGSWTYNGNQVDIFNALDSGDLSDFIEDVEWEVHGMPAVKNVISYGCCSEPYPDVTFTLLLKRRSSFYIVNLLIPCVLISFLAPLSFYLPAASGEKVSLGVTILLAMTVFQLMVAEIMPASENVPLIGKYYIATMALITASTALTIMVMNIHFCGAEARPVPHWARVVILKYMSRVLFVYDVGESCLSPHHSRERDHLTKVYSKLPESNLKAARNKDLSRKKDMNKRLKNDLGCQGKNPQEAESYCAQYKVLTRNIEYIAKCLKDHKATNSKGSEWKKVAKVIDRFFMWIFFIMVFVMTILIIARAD
# Sequence (Q9GZZ6 whole entry): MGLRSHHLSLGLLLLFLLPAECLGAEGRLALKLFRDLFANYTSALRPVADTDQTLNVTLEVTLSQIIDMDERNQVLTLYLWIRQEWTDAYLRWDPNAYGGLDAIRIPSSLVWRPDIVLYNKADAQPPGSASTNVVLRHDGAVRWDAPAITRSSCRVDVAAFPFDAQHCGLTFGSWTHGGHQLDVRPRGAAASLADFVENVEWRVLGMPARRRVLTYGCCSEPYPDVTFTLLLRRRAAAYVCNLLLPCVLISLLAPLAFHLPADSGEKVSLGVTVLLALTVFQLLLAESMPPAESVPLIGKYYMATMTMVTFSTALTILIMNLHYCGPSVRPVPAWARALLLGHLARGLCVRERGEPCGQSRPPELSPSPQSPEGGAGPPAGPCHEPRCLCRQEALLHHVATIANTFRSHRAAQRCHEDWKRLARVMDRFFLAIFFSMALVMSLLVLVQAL
# test protocol: Antagonist activity at human alpha9alpha10 nACHR expressed in xenopous laevis oocyte assessed as inhibition of ACh-induced channel current after 5 mins at -70 mV holding potential by two electrode voltage clamp method
pIC50: −log10 of the molar value.
test readout: pIC50

[[record]]
mol = "CC[N+](CC)(CC)CCOc1ccc(/C=C/c2cc(OC)cc(OC)c2)cc1"
target_of_assay = "Neuronal acetylcholine receptor; alpha9/alpha10 (Homo sapiens, UniProt Q9GZZ6+Q9UGM1)"
test_readout = "pIC50"
cmp = "="
value = 7.76

[[record]]
mol = "COc1cc(/C=C/c2ccc(OCCCC[P+](c3ccccc3)(c3ccccc3)c3ccccc3)cc2)cc(OC)c1.[I-]"
target_of_assay = "Neuronal acetylcholine receptor; alpha9/alpha10 (Homo sapiens, UniProt Q9GZZ6+Q9UGM1)"
test_readout = "pIC50"
cmp = "<"
value = 5.00


----------
# reported pIC50; entries follow
# System: Astrocyte
# test protocol: Cytotoxicity against mouse astrocytes assessed as reduction in cell viability after 72 hrs by MTS assay
pIC50: −log10 of the molar value.
test readout: pIC50

[[record]]
mol = "C(=C\\c1ccc(OCCCC[P+](c2ccccc2)(c2ccccc2)c2ccccc2)cc1)/c1ccccc1.[I-]"
value = 6.40

[[record]]
mol = "CC[N+](CC)(CC)CCOc1ccc(/C=C/c2cc(OC)cc(OC)c2)cc1"
value = 4.64

[[record]]
mol = "COc1cc(/C=C/c2ccc(OCCCC[P+](c3ccccc3)(c3ccccc3)c3ccccc3)cc2)cc(OC)c1.[I-]"
value = 6.00

[[record]]
mol = "C(=C\\c1ccc(OCCCCCCCCCC[P+](c2ccccc2)(c2ccccc2)c2ccccc2)cc1)/c1ccccc1.[I-]"
value = 6.22


----------
# System: U-87 MG
# test protocol: Induction of ROS production in human U87MG cells after 1 hr by MitoSOX Red mitochondrial superoxide indicator based FACS analysis
# Type: functional, cell-based
# reported conditions: U-87MG ATCC
Activity calls are given as the source filed them. No cut-off for these calls is given here.
Labels: active, inactive

[[record]]
mol = "CC[N+](CC)(CC)CCOc1ccc(/C=C/c2cc(OC)cc(OC)c2)cc1"
target_of_assay = "U-87 MG"
classification = "inactive"

[[record]]
mol = "C(=C\\c1ccc(OCCCCCCCCCC[P+](c2ccccc2)(c2ccccc2)c2ccccc2)cc1)/c1ccccc1.[I-]"
target_of_assay = "U-87 MG"
classification = "active"

[[record]]
mol = "C(=C\\c1ccc(OCCCC[P+](c2ccccc2)(c2ccccc2)c2ccccc2)cc1)/c1ccccc1.[I-]"
target_of_assay = "U-87 MG"
classification = "active"

[[record]]
mol = "COc1cc(/C=C/c2ccc(OCCCC[P+](c3ccccc3)(c3ccccc3)c3ccccc3)cc2)cc(OC)c1.[I-]"
target_of_assay = "U-87 MG"
classification = "active"


----------
# Tested on: A549
# test protocol: cells
# reported conditions: Homo sapiens, A549, 72 h
# Description: Antiproliferative activity against human A549 cells after 72 hrs by MTS assay
IC50 vs 300 nM: less than gives satisfied; not less than gives not satisfied.

[[record]]
mol = "COc1cc(/C=C/c2ccc(OCCCC[P+](c3ccccc3)(c3ccccc3)c3ccccc3)cc2)cc(OC)c1.[I-]"
classification = "satisfied"

[[record]]
mol = "CC[N+](CC)(CC)CCOc1ccc(/C=C/c2cc(OC)cc(OC)c2)cc1"
classification = "not satisfied"

[[record]]
mol = "C(=C\\c1ccc(OCCC[P+](c2ccccc2)(c2ccccc2)c2ccccc2)cc1)/c1ccccc1.[I-]"
classification = "not satisfied"

[[record]]
mol = "C(=C\\c1ccc(OCCCCCCCC[P+](c2ccccc2)(c2ccccc2)c2ccccc2)cc1)/c1ccccc1.[I-]"
classification = "satisfied"

[[record]]
mol = "C(=C\\c1ccc(OCCCCCC[P+](c2ccccc2)(c2ccccc2)c2ccccc2)cc1)/c1ccccc1.[I-]"
classification = "satisfied"

[[record]]
mol = "C(=C\\c1ccc(OCCCCCCCCC[P+](c2ccccc2)(c2ccccc2)c2ccccc2)cc1)/c1ccccc1.[I-]"
classification = "satisfied"


----------
# System: A549
# test protocol: cells
# reported conditions: Homo sapiens, A549, 72 h
pIC50: −log10 of the molar value.
test readout: pIC50

[[record]]
mol = "C(=C\\c1ccc(OCCCC[P+](c2ccccc2)(c2ccccc2)c2ccccc2)cc1)/c1ccccc1.[I-]"
test_readout = "pIC50"
value = 6.38

[[record]]
mol = "C(=C\\c1ccc(OCCCCC[P+](c2ccccc2)(c2ccccc2)c2ccccc2)cc1)/c1ccccc1.[I-]"
test_readout = "pIC50"
value = 6.49

[[record]]
mol = "C(=C\\c1ccc(OCCCCCCCCCC[P+](c2ccccc2)(c2ccccc2)c2ccccc2)cc1)/c1ccccc1.[I-]"
test_readout = "pIC50"
value = 7.00

[[record]]
mol = "C(=C\\c1ccc(OCCCCCCC[P+](c2ccccc2)(c2ccccc2)c2ccccc2)cc1)/c1ccccc1.[I-]"
test_readout = "pIC50"
value = 6.92


----------
# System: U-87 MG
# test protocol: cells
# reported conditions: Homo sapiens, 72 h
# Description: Antiproliferative activity against human U87MG cells after 72 hrs by MTS assay
log10 of IC50 values for the compounds below.
test readout: log10 of IC50 (log10 of the value in nM)

[[record]]
mol = "C(=C\\c1ccc(OCCC[P+](c2ccccc2)(c2ccccc2)c2ccccc2)cc1)/c1ccccc1.[I-]"
value = 3.15

[[record]]
mol = "C(=C\\c1ccc(OCCCCCCCCC[P+](c2ccccc2)(c2ccccc2)c2ccccc2)cc1)/c1ccccc1.[I-]"
value = 1.95

[[record]]
mol = "C(=C\\c1ccc(OCCCC[P+](c2ccccc2)(c2ccccc2)c2ccccc2)cc1)/c1ccccc1.[I-]"
value = 2.81

[[record]]
mol = "CC[N+](CC)(CC)CCOc1ccc(/C=C/c2cc(OC)cc(OC)c2)cc1"
value = 3.72

[[record]]
mol = "C(=C\\c1ccc(OCCCCC[P+](c2ccccc2)(c2ccccc2)c2ccccc2)cc1)/c1ccccc1.[I-]"
value = 2.83

[[record]]
mol = "C(=C\\c1ccc(OCCCCCC[P+](c2ccccc2)(c2ccccc2)c2ccccc2)cc1)/c1ccccc1.[I-]"
value = 2.58

[[record]]
mol = "C(=C\\c1ccc(OCCCCCCC[P+](c2ccccc2)(c2ccccc2)c2ccccc2)cc1)/c1ccccc1.[I-]"
value = 2.56

[[record]]
mol = "C(=C\\c1ccc(OCCCCCCCCCC[P+](c2ccccc2)(c2ccccc2)c2ccccc2)cc1)/c1ccccc1.[I-]"
value = 1.78

[[record]]
mol = "COc1cc(/C=C/c2ccc(OCCCC[P+](c3ccccc3)(c3ccccc3)c3ccccc3)cc2)cc(OC)c1.[I-]"
value = 2.93

[[record]]
mol = "C(=C\\c1ccc(OCCCCCCCC[P+](c2ccccc2)(c2ccccc2)c2ccccc2)cc1)/c1ccccc1.[I-]"
value = 1.85


----------
# target of assay: Neuronal acetylcholine receptor subunit alpha-7 (Homo sapiens, UniProt P36544)
# test protocol: Displacement of [125I]-alpha-bungarotoxin from human alpha7 nAChR expressed in human SH-SY5Y cell membranes after 30 mins by gamma counting analysis
test readout: log10 of Ki (log10 of the value in nM)

[[record]]
mol = "CC[N+](CC)(CC)CCCCCCCCOc1ccc(/C=C/c2ccccc2)cc1.[I-]"
test_readout = "log10 of Ki"
value = 2.21

[[record]]
mol = "C(=C\\c1ccc(OCCCCCCCCC[P+](c2ccccc2)(c2ccccc2)c2ccccc2)cc1)/c1ccccc1.[I-]"
test_readout = "log10 of Ki"
value = 3.11

[[record]]
mol = "C(=C\\c1ccc(OCCCCCCC[P+](c2ccccc2)(c2ccccc2)c2ccccc2)cc1)/c1ccccc1.[I-]"
test_readout = "log10 of Ki"
value = 2.79

[[record]]
mol = "C(=C\\c1ccc(OCCCCC[P+](c2ccccc2)(c2ccccc2)c2ccccc2)cc1)/c1ccccc1.[I-]"
test_readout = "log10 of Ki"
value = 3.45

[[record]]
mol = "COc1cc(/C=C/c2ccc(OCCCC[P+](c3ccccc3)(c3ccccc3)c3ccccc3)cc2)cc(OC)c1.[I-]"
test_readout = "log10 of Ki"
value = 3.26

[[record]]
mol = "CC[N+](CC)(CC)CCCCCCOc1ccc(/C=C/c2ccccc2)cc1"
test_readout = "log10 of Ki"
value = 2.67

[[record]]
mol = "C(=C\\c1ccc(OCCCCCCCCCC[P+](c2ccccc2)(c2ccccc2)c2ccccc2)cc1)/c1ccccc1.[I-]"
test_readout = "log10 of Ki"
value = 3.29

[[record]]
mol = "C(=C\\c1ccc(OCCCC[P+](c2ccccc2)(c2ccccc2)c2ccccc2)cc1)/c1ccccc1.[I-]"
test_readout = "log10 of Ki"
value = 3.21

[[record]]
mol = "C(=C\\c1ccc(OCCCCCC[P+](c2ccccc2)(c2ccccc2)c2ccccc2)cc1)/c1ccccc1.[I-]"
test_readout = "log10 of Ki"
value = 2.75

[[record]]
mol = "CC[N+](CC)(CC)CCCCOc1ccc(/C=C/c2ccccc2)cc1.[I-]"
test_readout = "log10 of Ki"
value = 2.27

[[record]]
mol = "C(=C\\c1ccc(OCCC[P+](c2ccccc2)(c2ccccc2)c2ccccc2)cc1)/c1ccccc1.[I-]"
test_readout = "log10 of Ki"
value = 2.99

[[record]]
mol = "CC[N+](CC)(CC)CCCCOc1ccc(/C=C/c2cc(OC)cc(OC)c2)cc1"
test_readout = "log10 of Ki"
value = 2.48

[[record]]
mol = "C(=C\\c1ccc(OCCCCCCCC[P+](c2ccccc2)(c2ccccc2)c2ccccc2)cc1)/c1ccccc1.[I-]"
test_readout = "log10 of Ki"
value = 2.96

